// data source = paper PMC4103810

Assay Target: T1, recombinant PCNA protein (human, UniProt P12004 1-261)
T1 construct: PCNA (proliferating cell nuclear antigen), human; The vector has a TEV protease site after the (His)6 tag, and no cleavage is described; also called (His)6-PCNA; source: E. coli BL21(DE3), purified (Ni-NTA, dialysis)
T1 sequence (P12004 whole entry): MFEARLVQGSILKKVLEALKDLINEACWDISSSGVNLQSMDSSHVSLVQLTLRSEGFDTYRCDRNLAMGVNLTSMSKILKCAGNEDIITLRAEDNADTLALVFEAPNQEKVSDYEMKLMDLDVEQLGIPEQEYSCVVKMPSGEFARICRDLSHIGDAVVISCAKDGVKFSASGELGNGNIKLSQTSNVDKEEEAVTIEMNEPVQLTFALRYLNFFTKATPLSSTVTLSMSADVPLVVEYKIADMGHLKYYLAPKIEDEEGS
Assay Procedure: fluorescence polarisation; competition: increasing unlabeled 12-mer peptide against 50 nM N-terminal FITC-PL peptide and 1 µM PCNA (monomer concentration); 25 mM HEPES pH 7.4, 10% glycerol, 0.01% Triton X-100; 30 min at room temperature, read at 30°C; fraction of FITC-PL bound fitted to the complete (Eq. 6) or incomplete (Eq. 7, four-state) competition model of Roehrl et al.; estimated dissociation constants
Condition Notes: both partners purified
Reported Property: pKd
Scale note: pKd = -log10(concentration in M).

Sample records with pKd:
- HRFFAGIVWQHV (reverse PIP Box stretch of Akt, found by screening the human genome; Made on CLEAR Amide resin, so the C-terminus is probably an amide; source: synthetic peptide (solid phase, HPLC purified)) [Akt 12-mer reverse PIP Box peptide]: 5.70
- PGQRSISLRYEG (PIP Box stretch of Abl (ABL1), lying in the SH2 domain; Made on CLEAR Amide resin, so the C-terminus is probably an amide; source: synthetic peptide (solid phase, HPLC purified)) [Abl 12-mer PIP Box peptide]: 4.28

Problem: Quickly give me recorded pKd for NRQVSITGFFQR (PIP Box stretch of the p66 subunit of DNA polymerase δ (POLD3); Made on CLEAR Amide resin, so the C-terminus is probably an amide; source: synthetic peptide (solid phase, HPLC purified)) [DNA polymerase δ (p66 subunit) 12-mer PIP Box peptide]
Result: 4.68

Problem: Give the reported pKd for this binder. TLQYLLKHFFKL (PIP Box stretch of the PI3-kinase p85α regulatory subunit (PIK3R1), found by screening the human genome; Made on CLEAR Amide resin, so the C-terminus is probably an amide; also called PI3-kinase (p85α regulatory domain); source: synthetic peptide (solid phase, HPLC purified)) [PI3K (p85α subunit) 12-mer PIP Box peptide]
Result: 5.80
